Listed here: items and their measured inhibition.
test: inhibition of PrP 5' UTR reporter expression (AID 488862); also: 0 = median of the neutral control wells
study_conditions: cell-based PrP 5' UTR mRNA reporter, plate reader; hits give high values; concentration not given here
Screen size: about 340,000 compounds; about 1,200 (0.35%) were called active. This is one part of a sample in which actives are shown more often than they occur.
I only need the number, in %, no unit after it.

Example entries begin here.
>>> observed_value("C[N+](C)(C)CCOP(=O)([O-])OC[C@H](O)CO")
-9.94
>>> observed_value("Cc1ccc(C(=O)N/C(=C\\c2ccc(F)cc2)C(=O)NCCN2CCOCC2)cc1")
-18.5
>>> observed_value("N#Cc1nc(N)nc(N(c2ccccc2)c2ccccc2)n1")
-20.2
>>> observed_value("O=C1Nc2cc(C(=O)N3CCN(c4ccc(F)cc4)CC3)ccc2NC1CSCc1cccc(F)c1 (stereo not given)")
-17.6
>>> observed_value("COc1ccc(C(=O)N[C@H](C(=O)NCc2ccccc2)C(C)C)cc1")
-2.13

query: Look up inhibition: Cc1noc(C)c1COC(=O)Cn1c(C)nc2ccccc21
result: -15.5

query: What do we get for CCOC(=O)c1cnc(-n2nc(C)cc2C)nc1NNc1cc(C)nc(-c2ccccc2)n1 ?
result: 33.9

query: Another compound: Cc1ccc(S(=O)(=O)N(C)CC(=O)N2CCc3ccccc32)cc1
result: -9.45

query: And what about the compound CCCOC(=O)c1[nH]c2c(c1C)C(=O)CC(c1cccs1)C2 (stereo not given) ?
result: 60.4

query: Next compound: COc1cc(OC)cc(C(=O)N[C@H](C(=O)NNC(=O)c2ccc(Br)cc2)C(C)C)c1
result: -12.3

====

test: inhibition of PrP 5' UTR reporter expression (AID 488862); also: 0 = median of the neutral control wells
study_conditions: cell-based PrP 5' UTR mRNA reporter, plate reader; concentration not given here
The whole screen tested about 340,000 compounds, of which about 1,200 (0.35%) were called active. Cut-off read from the data, not from the text of the source: active = inhibition above about 52%; inactive = the rest. This is one part of a sample in which actives are shown more often than they occur.
// allowed return values: active, inactive

Solved cases below.
>>> label_class("Clc1ccc2nc3c(c(-c4ccccc4)c2c1)CNCC3")
"inactive"
>>> label_class("Cc1ccc(/C=C2/SC(=S)N(CCC(=O)NCCCN3CCOCC3)C2=O)cc1")
"inactive"
>>> label_class("O=C(Nc1ccc(Br)cn1)C1CCN(S(=O)(=O)c2cccs2)CC1")
"inactive"
>>> label_class("CCCNC(=O)C1CC(=O)N(c2ccc(OCC(=O)Nc3cccc(C)c3C)cc2)C1 (configuration not stated)")
"inactive"
>>> label_class("CCOc1ccc(N/C=C/C(=O)c2ccccc2)cc1")
"inactive"
>>> label_class("NC(N)=Nc1nc(-c2ccccc2)c2cc(Cl)ccc2n1")
"inactive"
>>> label_class("Cc1ccc(CCC(=O)Nc2ncc(Cc3cc(Cl)ccc3Cl)s2)o1")
"active"
>>> label_class("Clc1ccc2nc(-c3ccccc3)nc(C(Cl)Cl)c2c1")
"active"
>>> label_class("O=C(CSc1ncnc2sccc12)NC1CCS(=O)(=O)C1 (configuration not stated)")
"inactive"
>>> label_class("CN1CCN(c2ccc([N+](=O)[O-])c(Sc3nc4ccccc4[nH]3)c2)CC1")
"inactive"

query: # outcome recorded in this test, key = CN(c1ccc2nc3ccccc3c(=O)n2n1)C1CCCCC1
result: active

query: C/C(=N/NC(=O)CN1CCN(S(=O)(=O)c2ccc(Br)cc2)CC1)c1ccncc1 ?
result: inactive

query: Check CC(C)CC[n+]1ccn(C2=C([O-])c3ccccc3C(=O)/C2=N\S(=O)(=O)c2ccccc2)c1 too.
result: inactive

query: What about this compound? Cc1ccc(Cc2cnc(N)s2)o1
result: inactive

query: Input COc1ccc(C(=O)C2CCCN(C(=O)c3cnsn3)C2)c(C)c1 (configuration not stated)
result: inactive

query: Also COc1ccccc1CNC(=O)CSc1nc(=O)n(Cc2ccncc2)c2c1CCC2 , if possible.
result: inactive

query: Param item: CC(C)C(C)NC(=O)COc1nc2ccccc2nc1N(C)C1CCCCC1 (configuration not stated)
result: inactive

query: For CSc1nc(-c2ccccc2)nc(C(Cl)Cl)n1 then?
result: active

query: Also, O=C1/C(=C/c2ccc(F)cc2)SC(=S)N1CCCC(=O)N1CCCCC1CCO (configuration not stated) please.
result: inactive

query: Query CC1(C)C[C@H]2C3=CCC4[C@@]5(C)CC[C@H](O)[C@](C)(CO)C5CC[C@@]4(C)[C@]3(C)C[C@@H](O)[C@@]2(CO)[C@@H](O)[C@@H]1O (some centres not stated) next
result: inactive

query: One more compound: C=C(C)CSc1nc(N)c2c3c(sc2n1)CCC3
result: inactive

query: Repeat for the following compound: CCC(C)Cn1c(O)cc2nn(-c3nc4ccccc4s3)c(=O)c-2c1C (configuration not stated)
result: active

====

test: inhibition of PrP 5' UTR reporter expression (AID 488862); also: 0 = median of the neutral control wells
study_conditions: cell-based PrP 5' UTR mRNA reporter, plate reader; hits give high values; concentration not given here
Hit rate of the full screen: of about 340,000 compounds, about 1,200 (0.35%) were called active. The sample holds actives, similar compounds and a random draw of the others, so the mix is not that of the screen.
Quick rule for you: inhibition at -10% or higher means y, lower means n.

>>> label_class("COc1ccc(C(=O)Nc2ccccc2C(=O)N/N=C/c2ccc(O)c(OC)c2)cc1")
"y"
>>> label_class("CSc1nc(N(C)NC(=O)c2cccc(C)c2)c2ccccc2n1")
"y"
>>> label_class("O=C(NCc1ccccc1CN1CCCC1)c1cccc(S(=O)(=O)Nc2ccc(F)cc2)c1")
"n"

query: Reported inhibition at or above -10%? COc1ccc(C(=O)Nc2cccc(/C=C(/CCC(=O)O)c3nc4ccccc4s3)c2)cc1
result: y

query: Also NC(=O)CC(NC(=O)Cc1ccc(Br)cc1)c1ccc(NC2CC3CCC2C3)c([N+](=O)[O-])c1 (stereo unspecified) ?
result: n

query: Also, COc1ccc(CCNS(=O)(=O)c2ccc(Cl)s2)cc1OC please.
result: y

query: Similarly, Cn1c(CC(=O)NNC(=O)c2ccccc2F)nc2ccccc21 ?
result: n

query: What do you get for CCOc1ccc2sc(NS(=O)(=O)c3ccc(N)cc3)nc2c1 ?
result: n

query: Now this one: CCn1c(=O)c(=O)[nH]c2c(=O)oc3ccc(S(=O)(=O)Nc4ccc(OC)cc4)cc3c21
result: y

query: Then this molecule: COc1cccc(NC(=O)N2CCCC2C(=O)NC2CCCCC2)c1 (stereo unspecified)
result: n

query: Continue with COc1cc(C=NNC(=O)c2cccnc2)ccc1OC(=O)c1ccccc1F
result: n

query: Follow-up entry: COc1ccc2oc(C(=O)OCC(=O)N(CC(C)C)c3c(N)n(Cc4ccccc4)c(=O)[nH]c3=O)c(C)c2c1
result: y

query: Could you do the same for COc1cccc(/C=N\Nc2nncc(-c3ccccc3)n2)c1 , please?
result: n

query: Likewise for C/C(=N\Nc1nncc2ccccc12)c1ccc(Cl)c([N+](=O)[O-])c1 ?
result: n

query: Try COc1ccc(NS(=O)(=O)c2ccc3oc(SCC(N)=O)nc3c2)cc1 next.
result: n

query: Cool, now COc1ccc(N(C(=O)c2ccc(C)cc2)S(=O)(=O)c2cccs2)cc1
result: y

====

test: inhibition of PrP 5' UTR reporter expression (AID 488862); also: 0 = median of the neutral control wells
study_conditions: cell-based PrP 5' UTR mRNA reporter, plate reader; hits give high values; concentration not given here
About 1,200 (0.35%) of roughly 340,000 compounds were called active. The sample as a whole holds a higher share of actives than the screen did.
endpoint_name: inhibition (%)
Just the number please, in %, no unit attached.

Worked cases, answers included:
>>> observed_value("O=C(C1=C[C@H](c2coc3ccccc3c2=O)C[C@H](OCc2ccc(CO)cc2)O1)N1CCOCC1")
-9.97
>>> observed_value("O=C(C1=C[C@H](c2coc3ccccc3c2=O)C[C@H](OCc2ccc(CO)cc2)O1)N1CCN(Cc2ccccc2)CC1")
81.9
>>> observed_value("CC(=O)OC1C2(CC3N4C(=O)C5(CO)SSC4(CC31O)C(=O)N5C)OC(C)C(C)(C)C2=O (centres undefined)")
96.4

Then this compound:
query: Using the record for O=C(OCC(=O)N1CCN(C(=O)c2ccco2)CC1)c1c(Cl)cccc1Cl , report its inhibition.
result: -17

====

Examples of compounds with documented inhibition follow.
test: inhibition of PrP 5' UTR reporter expression (AID 488862); also: 0 = median of the neutral control wells
study_conditions: cell-based PrP 5' UTR mRNA reporter, plate reader; hits give high values; concentration not given here
Out of some 340,000 compounds screened, about 1,200 (0.35%) were called active. Only a selection was taken, and actives are over-represented in it overall.
# number only, unit % dropped from output

>>> observed_value("C[C@]12CCC3C(CC[C@H]4[C@H](O)[C@H](O)CC[C@]34C)C1CCC2=O (stereo partly specified)")
-23.5
>>> observed_value("CC(=NCc1ccc2c(c1)OCO2)C1=C(O)c2ccccc2C1=O")
1.49
>>> observed_value("CC12CCC3C(CCC4CC(=O)CCC43C)C1CC(=NO)C2=O (stereo unspecified)")
52
>>> observed_value("CCOc1ccc(NC(=O)CCCCCN2C(=O)[C@@H]3Cc4ccccc4CN3C2=O)cc1")
-14.6
>>> observed_value("COC(=O)N1CN(C(=O)OC)CN(C(=O)OC)C1")
-16.8
>>> observed_value("O=C(CCc1ccccc1)NCCc1cccs1")
-25.9
>>> observed_value("O=C(NC(=S)Nc1ccc(Cl)cc1Cl)C1CC1")
-42.6
>>> observed_value("CCC(C)(O)C(=O)OC1C(=O)OC2CC3C(C)=CC(=O)C(O)C3(C)C3C4(O)OCC23C1C(C)C4O (stereo unspecified)")
78.9
>>> observed_value("Cc1cc(C)c(SCCc2ccncc2)c(C)c1")
-26.1
>>> observed_value("O=[N+]([O-])c1ccc(NC(=S)N2CCN(c3ccccn3)CC2)cc1")
-31.5

query: What does the data say about its inhibition? Entry: COc1cc([N+](=O)[O-])ccc1NC(=S)N1CCN(c2ccccn2)CC1
result: 60.8
